In this section, each of the sequences is paired with its reported PBM binding z-score.
Tested on: RARb homodimer (NR concentration 270 nM)
Assay: PBM binding z-score (relative to random genomic background probes); higher = stronger binding; sequences stand for … in GC…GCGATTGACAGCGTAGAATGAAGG

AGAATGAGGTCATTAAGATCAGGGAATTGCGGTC : 3.96
ATCGAAAGGTCAAAGGTGAGTATACCCACCCGAA : 5.31
TACCCTAGGTCATTGGGCCAGTATAGTACGCATC : 3.25

Kindly note the recorded PBM binding z-score for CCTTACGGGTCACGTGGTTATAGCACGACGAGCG , which is 3.47

Kindly note the recorded PBM binding z-score for CCTACTGGGCCTAAGGTCATTGATTCCAATGCTC , which is 3.54

Kindly note the recorded PBM binding z-score for CTCGAAAGGTCGTGCTCAGATGAGTATACCAAAC , which is 2.15

Kindly note the recorded PBM binding z-score for CGTCAAAGGTCAGCAGGTCAGTGAAAGCGACGTG , which is 5.42

Kindly note the recorded PBM binding z-score for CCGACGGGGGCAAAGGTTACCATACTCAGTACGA , which is 3.21

Kindly note the recorded PBM binding z-score for ACTTAGGGGTCAACGAGGTTATAGCACGCGTATA , which is 5.02

Kindly note the recorded PBM binding z-score for AGAATGAGGTTAAGTTCAGGGAAACAGAATACAT , which is 2.6

Kindly note the recorded PBM binding z-score for CGAACTAGGTCAAGGACAGTAAATCTCCGCACGC , which is 2.91

Kindly note the recorded PBM binding z-score for CTACCAAGGTCAACAAGGTCGTTGATTACTATTC , which is 5.25

Kindly note the recorded PBM binding z-score for CGTCCAAGGTCTAGGTCAGTGAAAGAGACTCGAA , which is 2.38

Kindly note the recorded PBM binding z-score for CCTACGGGGCCACGAAAGGTCATTGATTCAGTGA , which is 5.16

Kindly note the recorded PBM binding z-score for CCTACTGGGCCAAAAAGTTCATTGATGCCGATAA , which is 2.64

Kindly note the recorded PBM binding z-score for CCGAGTTGGTCAAGGTCACACACGCTATAGGTAC , which is 4.42

Kindly note the recorded PBM binding z-score for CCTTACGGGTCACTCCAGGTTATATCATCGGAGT , which is 3.31

Kindly note the recorded PBM binding z-score for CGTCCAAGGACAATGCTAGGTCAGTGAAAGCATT , which is 2.48

Kindly note the recorded PBM binding z-score for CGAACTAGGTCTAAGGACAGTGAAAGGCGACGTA , which is 0.133

Kindly note the recorded PBM binding z-score for TCTAGTTGGTCACGGAGGACACACACGACGGGTA , which is 2.13

Kindly note the recorded PBM binding z-score for TAGCCTAGGTCATTCAGGGGCCAGCATAGAAAGC , which is 3.42

Kindly note the recorded PBM binding z-score for CGAACAAGGTCATCCAGGACAGTGAATACATTGA , which is 4

====

System: LXRb homodimer (NR concentration 270 nM)
Test: PBM binding z-score (relative to random genomic background probes); higher = stronger binding; sequences stand for … in GC…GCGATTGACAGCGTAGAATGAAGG
In this section, each of the sequences is paired with its reported PBM binding z-score.
# respond with the number and nothing more

Worked cases, PBM binding z-score given:
CGTCTAAGGTCATAGGAGGTCAGTGAAGACAGAT : 1.55
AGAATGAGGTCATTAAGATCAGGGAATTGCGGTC : 1.68

CGTCCAAGGTCGAAGGTCAGTGAAGAGATGACGG tested on LXRb homodimer (NR concentration 270 nM) gave PBM binding z-score: -0.645

TATAAAGGGTCAAAGGCCAGAGTACGAATGTCGA tested on LXRb homodimer (NR concentration 270 nM) gave PBM binding z-score: 3.14
